// provenance: patent US20260102501A1

As shown below, each of these compounds has a reported pIC50 value.
assay system: Progesterone PR-B receptors from human breast carcinoma T47D cells (Homo sapiens, UniProt P06401)
Sequence (P06401 1-933): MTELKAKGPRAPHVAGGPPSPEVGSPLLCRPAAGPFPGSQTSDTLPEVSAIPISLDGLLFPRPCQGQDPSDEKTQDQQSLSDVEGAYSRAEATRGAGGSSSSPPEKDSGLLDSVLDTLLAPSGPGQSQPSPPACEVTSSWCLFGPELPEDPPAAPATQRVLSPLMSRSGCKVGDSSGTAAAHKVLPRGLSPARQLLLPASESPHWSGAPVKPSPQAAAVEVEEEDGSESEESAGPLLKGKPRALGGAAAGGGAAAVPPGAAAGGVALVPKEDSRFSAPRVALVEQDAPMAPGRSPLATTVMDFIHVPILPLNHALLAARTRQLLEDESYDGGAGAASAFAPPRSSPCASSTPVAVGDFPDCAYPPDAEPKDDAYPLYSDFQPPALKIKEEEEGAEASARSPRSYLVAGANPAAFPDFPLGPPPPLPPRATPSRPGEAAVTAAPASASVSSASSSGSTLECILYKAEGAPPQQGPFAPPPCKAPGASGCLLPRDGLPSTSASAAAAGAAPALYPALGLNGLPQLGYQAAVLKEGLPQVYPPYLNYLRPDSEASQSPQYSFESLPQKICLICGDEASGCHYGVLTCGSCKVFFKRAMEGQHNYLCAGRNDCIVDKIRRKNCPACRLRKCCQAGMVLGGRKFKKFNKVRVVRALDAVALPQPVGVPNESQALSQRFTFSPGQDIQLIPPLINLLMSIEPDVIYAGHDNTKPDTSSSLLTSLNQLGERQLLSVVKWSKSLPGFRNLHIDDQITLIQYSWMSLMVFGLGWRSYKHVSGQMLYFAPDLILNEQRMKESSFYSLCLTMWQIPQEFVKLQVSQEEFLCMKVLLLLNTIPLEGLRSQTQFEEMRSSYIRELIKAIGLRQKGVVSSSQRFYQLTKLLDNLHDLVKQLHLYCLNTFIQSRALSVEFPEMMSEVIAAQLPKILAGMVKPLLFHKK
test details: PR binding assay ([3H] Progesterone displacement)
pIC50: −log10 of the molar value.

Given the compound CC[C@@]1(O)C(=O)OCc2c1cc1n(c2=O)Cc2cc3c(CN4CCN(CCCCCCN(C)c5ccc([C@H]6C[C@@]7(C)[C@@H](CC[C@]7(OC(C)=O)C(C)=O)[C@@H]7CCC8=CC(=O)CCC8=C76)cc5)CC4)cccc3nc2-1 [Compound 38] , what is its reported pIC50? > 8.00

One more compound: CC[C@@]1(O)C(=O)OCc2c1cc1n(c2=O)Cc2cc3c(CN(C)C)c(OC(=O)N4C[C@H](C)N(C(=O)[C@H](CCCNC(N)=O)NC(=O)[C@@H](NCCCCCCN(C)c5ccc([C@H]6C[C@@]7(C)[C@@H](CC[C@]7(OC(C)=O)C(C)=O)[C@@H]7CCC8=CC(=O)CCC8=C76)cc5)C(C)C)C[C@H]4C)ccc3nc2-1 [Compound 35] > 8.00

One more compound: CC[C@@]1(O)C(=O)OCc2c1cc1n(c2=O)Cc2cc3c(CN4CCN(CCCCCCN(C)c5ccc([C@H]6C[C@@]7(C)[C@@H](CC[C@]7(OC(C)=O)C(C)=O)[C@@H]7CCC8=CC(=O)CCC8=C76)cc5)CC4)c(O)ccc3nc2-1 [Compound 36] > 8.00
